Type: cell-based, human
EXPERIMENTAL CONTEXT: human
Square brackets hold non-standard residues; d marks the D form. Peptide text beside a SMILES is read from it. N(1-naphthylmethyl)Gly = O=C(O)CNCc1cccc2ccccc12; 1Nal = N[C@@H](Cc1cccc2ccccc12)C(=O)O; Nphe = O=C(O)CNCc1ccccc1; NBuGly = CCCCNCC(=O)O
hemolysis at 1 h, 150 µM values by entry

CC(C)C[C@H](NC(=O)[C@H](CCCCN)NC(=O)[C@H](Cc1cccc2ccccc12)NC(=O)[C@H](Cc1ccccc1)NC(=O)[C@@H](N)Cc1cccc2ccccc12)C(=O)N[C@@H](CCCCN)C(=O)N[C@@H](CCCCN)C(N)=O [Compound 10] (H-[1Nal]F[1Nal]KLKK-NH2; N-terminus assumed) : < 8%
CC(C)C[C@H](NC(=O)[C@H](Cc1cccc2ccccc12)NC(=O)[C@H](Cc1ccccc1)NC(=O)[C@@H](N)Cc1cccc2ccccc12)C(=O)N[C@@H](CCCCN)C(=O)N[C@@H](CCCCN)C(=O)N[C@@H](CCCCN)C(N)=O [Compound 12] (H-[1Nal]F[1Nal]LKKK-NH2; N-terminus assumed) : < 8%

Turning now to a further compound:
Query: Param item = CCCCN(CC(=O)N[C@@H](CCCCN)C(=O)N(CC(=O)N(CC(=O)N(CC(N)=O)Cc1cccc2ccccc12)Cc1ccccc1)Cc1cccc2ccccc12)C(=O)[C@H](CCCCN)NC(=O)[C@@H](N)CCCCN [Compound 2] (H-KK[NBuGly]K[N(1-naphthylmethyl)Gly][Nphe][N(1-naphthylmethyl)Gly]-NH2; N-terminus assumed) ; retrieve measured hemolysis at 1 h, 150 µM.
Result: < 8%
